All values here come from PubChem BioAssay (NCI).

Reported growth is given for each of the following molecules.
- Tested on: DU-145 prostate
- Protocol: NCI-60 one-dose screen, 48 h (100 = growth as untreated, 0 = no growth, -100 = all killed)
- Measurement context: 10 µM unless noted
About 83,000 compounds went through this panel and 20% of them were active in at least one assay; those are over-represented in the sample as a whole.
Just the number please, in %, no unit attached.

Completed entries (count: 4):
- Line notation: "N=c1c2cc(-c3ccccc3)oc2ncn1/N=C/c1ccccc1"
  growth, %: 96.7
- Line notation: "COc1ccc(-c2cc(-c3cccc4ccccc34)n3c(n2)nc2ccccc23)cc1OC"
  growth, %: 15.7
- Line notation: "Cc1cn(-c2cc(NC(=O)c3cncc(C#Cc4cnc5ccc(O[C@@H]6CCOC6)nn45)c3)cc(C(F)(F)F)c2)cn1"
  growth, %: -86.5
- Line notation: "CC(C)C[C@H]1C(=O)O[C@H](C(C)C)C(=O)N(C)[C@@H](C(C)C)C(=O)O[C@H](C(C)C)C(=O)N(C)[C@@H](C(C)C)C(=O)O[C@H](C(C)C)C(=O)N1C"
  growth, %: 24.4

Prompt: Name the recorded growth for COc1ccc(-c2nn(-c3ccccc3)cc2/C=C/C(=O)c2ccc(NC(=O)CCCCCCC(=O)NO)cc2)cc1 .
Completion: 97.6

Prompt: Moving on to the next molecule: C#C[C@]1(O)CC[C@H]2[C@@H]3CC=C4c5sc(Nc6ccc(OC)nc6)nc5CC[C@]4(C)[C@H]3CC[C@@]21C
Completion: 24.8

Prompt: Moving on to the next molecule: CS(=O)(=O)c1ccc(-c2nn(-c3ccccc3)cc2/C=C/C(=O)c2ccc(Br)cc2)cc1
Completion: 100

Prompt: Moving on to the next molecule: NS(=O)(=O)c1ccc(-n2cc(CC=O)nn2)cc1
Completion: 107

Prompt: Moving on to the next molecule: O=C(Nc1ccc(-c2nc(-c3cccc(O)c3)c(-c3ccnc(Br)c3)[nH]2)cc1)c1ccccc1
Completion: 35.5

---

- Test system: SK-MEL-2 melanoma
- Protocol: NCI-60 one-dose screen, 48 h (100 = growth as untreated, 0 = no growth, -100 = all killed)
- Measurement context: 10 µM unless noted
About 83,000 compounds went through this panel and 20% of them were active in at least one assay; those are over-represented in the sample as a whole.
Reported growth is given for each of the following compounds.
Just the number please, in %, no unit attached.

- Compound: "CCOC(=O)/C=c1\\sc2n(c1=O)C1C(NN=2)N(CC)C(=O)N1CC (stereo not given)"
  Quantity unit: "%"
  growth: 76.7
- Compound: "Cc1ccc(NC(=O)c2cccc(CN3CCN(C)CC3)c2)cc1Oc1ccc(-c2[nH]nc3ncnc(N)c23)cc1"
  Quantity unit: "%"
  growth: 73.8
- Compound: "O=S(=O)(Nc1ccc(I)c(Cl)c1)c1ccc(-c2cnc(C3CC3)o2)cc1"
  Quantity unit: "%"
  growth: 43.7
- Compound: "COc1ccc(CCN2C(=O)/C(=C/c3nc(CO)cs3)SC2=S)cc1"
  Quantity unit: "%"
  growth: 96.9
- Compound: "CC(C)C(=O)Nc1ccc(-c2nc(-c3cccc(O)c3)c(-c3ccnc(Br)c3)[nH]2)cc1"
  Quantity unit: "%"
  growth: 44.1

Prompt: Test system SK-MEL-2 melanoma; read-out growth; what value for Oc1ccccc1/C=N/Nc1nc(N/N=C/c2ccccc2O)nc(N2CCOCC2)n1 ?
Completion: 72

Prompt: Moving on to the next compound: Cc1cc(F)cc(NS(=O)(=O)c2ccc(-c3cnc(C4CC4)o3)cc2)c1
Completion: 67

Prompt: Moving on to the next compound: C#C[C@]1(O)CC[C@H]2[C@@H]3CC=C4c5sc(-c6cccc(F)c6)nc5CC[C@]4(C)[C@H]3CC[C@@]21C
Completion: 91.9

Prompt: Moving on to the next compound: O=C(NCCCCCCNC(=O)c1c2c(nc3ccccc13)-c1cccnc1SC2)c1c2c(nc3ccccc13)-c1cccnc1SC2
Completion: 5.25

Prompt: Moving on to the next compound: N#Cc1c(-c2ccccc2)cc(-c2c[nH]c3ccccc23)nc1-c1c[nH]c2ccccc12
Completion: 97.7

Prompt: Moving on to the next compound: O=c1oc2ccc(-c3ccc(F)cc3F)cc2c(=O)n1-c1cccc(C(F)(F)F)c1
Completion: -12.5

Prompt: Moving on to the next compound: O=S(=O)(Nc1ccc(-c2nc(-c3cccc(O)c3)c(-c3ccnc(Br)c3)[nH]2)cc1)c1ccccc1
Completion: 23.5

Prompt: Moving on to the next compound: NC(=O)c1c(NC(=O)c2cccc(OC(F)(F)F)c2)sc2c1CCC(=O)C2
Completion: 105

Prompt: Moving on to the next compound: Cc1nn(-c2ccc(Br)cc2)c2nc(CCl)[nH]c(=O)c12
Completion: 99.9

---

- System: NCI-H522 lung
- Protocol: NCI-60 one-dose screen, 48 h
- Measurement context: 10 µM unless noted
The panel holds about 83,000 compounds, 20% with a hit somewhere; the sample as a whole holds those more often. The source made the active and inactive calls. How the source made its calls: active means growth percent below 10; inactive means the rest.
Pick one and only one: label 1 (active), label 0 (inactive)

- Compound: "NC(=O)C(=Cc1ccc(Cl)cc1)C(N)=O"
  Class assignment: "label 0"

Prompt: Which result was noted for this compound in the test: COc1ccccc1/C=C/C=N/NC1=NC2C(S1)N(C)C(=O)N2c1ccccc1 (centres undefined)
Completion: label 0

Prompt: Moving on to the next compound: CCOc1c(C#N)c(Nc2ccc(S(N)(=O)=O)cc2)c(C#N)c2nnc(C)n12
Completion: label 0

Prompt: Moving on to the next compound: Cn1cc(-c2nn3cc(-c4ccncc4)nc3s2)c2cc(Cl)ccc21
Completion: label 0

Prompt: Moving on to the next compound: COc1ccc(Cn2cc3c(c2-c2cc(OC)c(OC)c(OC)c2)CCCc2cnoc2-3)cc1N
Completion: label 0

---

- Test system: A549/ATCC NSCLC
- Protocol: NCI-60 one-dose screen, 48 h (100 = growth as untreated, 0 = no growth, -100 = all killed)
- Measurement context: 10 µM unless noted
This is part of a sample that, as a whole, favours compounds with a hit. Of some 83,000 tested, about 20% had one in any assay.
Outcome measure: growth (%)
Just the number please, in %, no unit attached.

Completed entries (count: 3):
- Line notation: "Oc1ccc(CSc2nnc(-c3ccc(Oc4ccccc4)cc3)o2)c2cccnc12"
  Outcome measure: "growth"
  Value: 9.22
- Line notation: "CSc1ccc(/C(=N/N=C(N)N)c2ccccc2)cc1"
  Outcome measure: "growth"
  Value: 27.4
- Line notation: "COc1cc(/C=N/n2cnc3oc(-c4ccccc4)cc3c2=N)cc(CN2CCN(C)CC2)c1O"
  Outcome measure: "growth"
  Value: 94.3

Prompt: Test system A549/ATCC NSCLC; read-out growth; what value for O=C(/C=C/c1cn(-c2ccccc2)nc1-c1ccc(Cl)cc1)c1cc2ccccc2oc1=O ?
Completion: 88.7

Prompt: Moving on to the next compound: CN(c1ccc(F)cc1)S(=O)(=O)c1ccc(-c2cnc(C3CC3)o2)cc1
Completion: 31.1

Prompt: Moving on to the next compound: O=C1NC(=O)c2c1c1c3ccccc3ccc1c1[nH]c3ccccc3c21
Completion: 23.5

Prompt: Moving on to the next compound: Oc1ccc(CSc2nnc(-c3ccc(Br)cc3)o2)c2cccnc12
Completion: 29.8

---

Reported growth is given for each of the following compounds.
- Test system: OVCAR-4 ovarian
- Protocol: NCI-60 one-dose screen, 48 h (100 = growth as untreated, 0 = no growth, -100 = all killed)
- Measurement context: 10 µM unless noted
About 83,000 compounds went through this panel and 20% of them were active in at least one assay; those are over-represented in the sample as a whole.
Just the number please, in %, no unit attached.

- Compound: "CSc1ccc(/C(=N/N=C(N)N)c2ccccc2)cc1"
  Target desc: "OVCAR-4 ovarian"
  Quantity unit: "%"
  Value: 67.2
- Compound: "COc1cccc(/C=C/C(=O)c2ccc(NC(=O)COc3cccc4cccnc34)cc2)c1"
  Target desc: "OVCAR-4 ovarian"
  Quantity unit: "%"
  Value: 101
- Compound: "CC(C)N=C(N/C(N)=N/c1nc2ccccc2s1)NC(C)C"
  Target desc: "OVCAR-4 ovarian"
  Quantity unit: "%"
  Value: 93.6
- Compound: "Nc1ccc(-c2nnc(SCc3ccc(O)c4ncccc34)n2-c2ccccc2)cc1"
  Target desc: "OVCAR-4 ovarian"
  Quantity unit: "%"
  Value: 12.4
- Compound: "CC(C)c1nn(-c2ccccc2)c(N2CCCCC2)c1/C=N/NC(N)=S"
  Target desc: "OVCAR-4 ovarian"
  Quantity unit: "%"
  Value: 72.4
- Compound: "CC(C)C(=O)Nc1ccc(-c2nc(-c3cccc(O)c3)c(-c3ccnc(Br)c3)[nH]2)cc1"
  Target desc: "OVCAR-4 ovarian"
  Quantity unit: "%"
  Value: 43.4

Prompt: Name the recorded growth for COc1ccc(Cn2cc3c(c2-c2cc(OC)c(OC)c(OC)c2)CCCc2cnoc2-3)cc1 .
Completion: 62.3

Prompt: Moving on to the next compound: CCOC(=O)C1=C(C)N=C2Sc3ccccc3N2C1c1ccccc1 (centres undefined)
Completion: 91.9

Prompt: Moving on to the next compound: C/C(=N\NC(=S)Nc1ccc(Br)cc1)c1cc2ccccc2oc1=O
Completion: 28.2

Prompt: Moving on to the next compound: O=C(O)c1ccc(-n2cc(CNc3ccc(F)cc3)c(-c3ccc(C(F)(F)F)cc3)n2)cc1
Completion: 86.8

Prompt: Moving on to the next compound: CN(c1ccc(Br)cc1)S(=O)(=O)c1ccc(-c2cnc(C3CC3)o2)cc1
Completion: 70.1

Prompt: Moving on to the next compound: COc1ccc(CCN2C(=O)CSC2=S)cc1OC
Completion: 100

Prompt: Moving on to the next compound: O=C(NNc1nc2cc(F)c(F)cc2n2cccc12)c1ncccn1
Completion: 13.4

Prompt: Moving on to the next compound: COc1cc(NC2=C(Cl)C(=O)c3nc(C)ccc3C2=O)cc(OC)c1
Completion: -93.3

Prompt: Moving on to the next compound: CC1CCc2c(sc3nc(SCC(=O)N/N=C/c4ccc(Cl)cc4)n(-c4ccccc4)c(=O)c23)C1 (centres undefined)
Completion: 99.4

Prompt: Moving on to the next compound: CN(C)c1ccc(/C=N/Nc2nc(N/N=C/c3ccc(N(C)C)cc3)nc(N3CCOCC3)n2)cc1
Completion: 104

Prompt: Moving on to the next compound: Nc1c(C(=O)c2ccccc2)sc2nc(-c3cnccn3)cc(-c3cccs3)c12
Completion: 106

Prompt: Moving on to the next compound: CCN1C/C(=N\S(=O)(=O)c2ccccc2)N(CC)C1=S
Completion: 106

Prompt: Moving on to the next compound: CC(=O)C1=NN(c2ccc(Cl)cc2)C(=O)CN1C
Completion: 114

Prompt: Moving on to the next compound: O=C1c2c(c3c4cccnc4[nH]c3c3ccc4ccccc4c23)C(=O)N1CCN1CCNCC1
Completion: 105

Prompt: Moving on to the next compound: CCNC(=NCCCN(C)C)N/C(N)=N/c1nc2ccccc2s1
Completion: 107

Prompt: Moving on to the next compound: COc1cc(/C=N/n2cnc3oc(-c4ccccc4)cc3c2=N)cc(CN2CCN(C)CC2)c1O
Completion: 97.7

Prompt: Moving on to the next compound: C/C=C/C=C1\C[C@H]2CO[C@H](O2)C1=O
Completion: 101

Prompt: Moving on to the next compound: O=c1cc(-c2ccccc2)nc2sc(-c3c[nH]c4ccc(Br)cc34)nn12
Completion: 105

Prompt: Moving on to the next compound: COc1cnc2c(c1)C(=O)c1c-2n(CCCn2ccnc2)c(=O)c2cc(OC)c(OC)cc12
Completion: -18.3
